Molecular target: Protein deacetylase HDAC6 (Homo sapiens)
Conditions: at 10 µM
Out of some 5,600 compounds screened, about 150 (2.7%) showed an effect of 50% or more. The sample holds strong results, similar compounds and a random draw of the others, so the mix is not that of the screen.
Measured inhibition, listed per entry for reference.
Just the number in %, nothing appended.

Illustrative cases are given below, each with its answer.
CC[C@]1(O)C[C@@H]2CN(CCc3c([nH]c4ccccc34)[C@@](C(=O)OC)(c3cc4c(cc3OC)N(C)[C@H]3[C@@](O)(C(N)=O)[C@H](O)[C@]5(CC)C=CCN6CC[C@]43[C@@H]65)C2)C1 : -4.06
N#Cc1cccc(-c2c[nH]c3ncnc(N4CCOCC4)c23)c1 : -3.83
CCCCCCCCCCCCCCCCNc1ccc(C(=O)O)cc1 : 2.63
Clc1cccc(C(c2ccc3[nH]cnc3c2)n2ccnc2)c1 (configuration not stated) : 0.23
CC(C)Oc1ccc2c(=O)c3cc(C(=O)O)ccc3oc2c1 : 76.3
COc1ccccc1C(=O)Nc1cc2c(cc1N1CCCC1)n(C)c(=O)n2C : -4.48
CN[C@H](CC(C)C)C(=O)N[C@H]1C(=O)N[C@@H](CC(N)=O)C(=O)N[C@H]2C(=O)N[C@H]3C(=O)N[C@H](C(=O)N[C@H](C(=O)O)c4cc(O)cc(O)c4-c4cc3ccc4O)[C@H](O[C@H]3C[C@](C)(N)[C@@H](O)[C@H](C)O3)c3ccc(c(Cl)c3)Oc3cc2cc(c3O[C@@H]2O[C@H](CO)[C@@H](O)[C@H](O)[C@H]2O[C@H]2C[C@](C)(NCc3ccc(-c4ccc(Cl)cc4)cc3)[C@@H](O)[C@H](C)O2)Oc2ccc(cc2Cl)[C@H]1O : 0.32
COc1ccc(-c2c(C)c(C(=O)NN3CCCCC3)nn2-c2ccc(Cl)cc2Cl)cc1 : 3.52
Cc1ccc(C)c(OCCCC(C)(C)C(=O)O)c1 : 4.07
CC(C)C[C@@H](NC(=O)OCC1c2ccccc2-c2ccccc21)C(=O)O : 3.37

I have this compound here, COc1ccc(Cl)cc1C(=O)NCCc1ccc(C(=O)O)cc1 , and I need its recorded inhibition.
-2.67

I have this compound here, CC(=O)CC(=O)O , and I need its recorded inhibition.
-2.94

I have this compound here, FC(F)(F)c1ccc(Nc2ncnc3cc(-c4ncccc4C(F)(F)F)ccc23)cc1 , and I need its recorded inhibition.
6.46

I have this compound here, CNC(=O)c1c(C)oc2cc(Oc3ncnc4cc(OC)c(OC)cc34)ccc12 , and I need its recorded inhibition.
14.7

I have this compound here, O=C(Nc1ccc(S(=O)(=O)Nc2nccs2)cc1)C(c1ccccc1)c1ccccc1 , and I need its recorded inhibition.
-1.03

I have this compound here, COc1ccc2c(c1)C(C(=O)N(Cc1ccc(N(C)C)cc1)c1ccc(C(C)C)cc1)CCC2 (configuration not stated) , and I need its recorded inhibition.
-3.38

I have this compound here, O=S1(=O)N[C@H]2CCCN2c2ccccc21 , and I need its recorded inhibition.
-6.18

###

Molecular target: Protein deacetylase HDAC6 (Homo sapiens) (UniProt Q9UBN7)
Sequence (Q9UBN7 whole entry): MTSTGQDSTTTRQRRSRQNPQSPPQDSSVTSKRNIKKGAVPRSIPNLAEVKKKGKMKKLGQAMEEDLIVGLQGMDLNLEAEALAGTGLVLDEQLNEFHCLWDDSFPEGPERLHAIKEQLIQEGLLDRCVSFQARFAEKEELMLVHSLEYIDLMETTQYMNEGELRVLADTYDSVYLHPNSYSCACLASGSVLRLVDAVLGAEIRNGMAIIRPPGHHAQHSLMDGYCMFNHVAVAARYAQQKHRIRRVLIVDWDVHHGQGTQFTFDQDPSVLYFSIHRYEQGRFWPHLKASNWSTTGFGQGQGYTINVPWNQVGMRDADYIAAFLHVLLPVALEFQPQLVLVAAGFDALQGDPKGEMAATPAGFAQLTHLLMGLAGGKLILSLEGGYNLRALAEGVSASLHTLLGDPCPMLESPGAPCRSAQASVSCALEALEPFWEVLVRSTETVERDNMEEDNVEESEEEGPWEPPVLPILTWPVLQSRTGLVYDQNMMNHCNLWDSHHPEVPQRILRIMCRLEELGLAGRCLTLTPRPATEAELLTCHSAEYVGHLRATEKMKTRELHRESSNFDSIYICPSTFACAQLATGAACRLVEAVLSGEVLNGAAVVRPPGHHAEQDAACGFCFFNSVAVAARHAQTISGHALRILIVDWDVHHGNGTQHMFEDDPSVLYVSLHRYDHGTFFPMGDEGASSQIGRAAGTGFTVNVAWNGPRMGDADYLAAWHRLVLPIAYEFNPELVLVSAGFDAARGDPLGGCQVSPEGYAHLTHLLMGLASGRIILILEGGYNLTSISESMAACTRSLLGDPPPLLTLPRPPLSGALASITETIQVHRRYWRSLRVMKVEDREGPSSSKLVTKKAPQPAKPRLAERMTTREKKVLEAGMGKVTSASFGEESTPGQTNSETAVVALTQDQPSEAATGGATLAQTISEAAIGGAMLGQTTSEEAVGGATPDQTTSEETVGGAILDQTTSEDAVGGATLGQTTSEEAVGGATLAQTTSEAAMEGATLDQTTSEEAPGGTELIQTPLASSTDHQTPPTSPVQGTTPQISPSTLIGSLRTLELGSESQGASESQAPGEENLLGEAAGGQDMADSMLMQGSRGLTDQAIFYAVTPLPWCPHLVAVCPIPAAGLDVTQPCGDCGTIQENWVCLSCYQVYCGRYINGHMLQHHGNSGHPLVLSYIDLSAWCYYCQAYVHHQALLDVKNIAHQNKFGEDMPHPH
Details: at 10 µM
The campaign covered roughly 5,600 compounds. About 150 (2.7%) showed an effect of 50% or more. Shown is part of a subset that was picked to be rich in strong results.
Measured inhibition, listed per entry for reference.
Just the number in %, nothing appended.

CCNC(=O)NS(=O)(=O)c1sc(CC(C)C)cc1-c1ccc(Cn2c(-c3ccccc3)nc(OC)c2C=O)cc1 : -1.89
COc1cc2c(cc1OC)-c1c(C)c3ccc(OC)c(OC)c3c[n+]1CC2 : -0.34
Nc1nccs1 : -0.93

Consider now this further compound.
Recall the recorded inhibition for Nc1nncs1 with Protein deacetylase HDAC6 (Homo sapiens) (UniProt Q9UBN7) and state it.
60.9
